Tested on: female stress-derived axillary odor
Test: Cross-adaptation of female stress-derived axillary odor (odor panel, magnitude estimation of perceived intensity); note: key: best: Best = Superior Cross-Adaptation; good: Good = Adequate Cross-Adaptation; poor: Poor = Ineffective Cross-Adaptation
Format: in vivo, human
Settings: female stress-derived odor perceived by women
reported-endpoint: Magnitude of Reduction of Intensity of Female Stress-Derived Odor (FSDO), Females

Answered cases to consult:
INSERT INTO measurements (compound, readout_value) VALUES
  ('CC(CO)CCCc1ccccc1 (centres unmarked)', 'poor'),
  ('CC/C=C\CCO [Cis-3-Hexenol, cis-3-hexenol-1-ol]', 'good'),
  ('CC(C)=CCCC(C)CCO (centres unmarked)', 'good'),
  ('CC(C)=CCCC(C)CCCC(C)C=O (centres unmarked)', 'poor'),
  ('CC(=O)OC1CCC(C(C)(C)C)CC1 (centres unmarked) [Oryclone Special, 4-tertbutylcyclohexyl acetate]', 'poor');

The reported Magnitude of Reduction of Intensity of Female Stress-Derived Odor (FSDO), Females of the compound OCCc1ccccc1 was poor

Per the records, this compound ( O=C1CCCCCCCC=CCCCCCCO1 [Ambrettolide, oxacycloheptadec-10-en-2-one] ) has Magnitude of Reduction of Intensity of Female Stress-Derived Odor (FSDO), Females equal to good

Magnitude of Reduction of Intensity of Female Stress-Derived Odor (FSDO), Females measured on O=C1CCCC=CCCCCCCCCCC1 = poor

Please fill in: Magnitude of Reduction of Intensity of Female Stress-Derived Odor (FSDO), Females reported for CCC(=CCC1CC=C(C)C1(C)C)CO (centres unmarked) = good

// sample Cc1ccc2c(c1)OCC(=O)CO2 , its Magnitude of Reduction of Intensity of Female Stress-Derived Odor (FSDO), Females was good

Briefly, Magnitude of Reduction of Intensity of Female Stress-Derived Odor (FSDO), Females measured for CC(=O)C1(C)CC2=C(CCCC2(C)C)CC1C (centres unmarked) : poor

Recorded Magnitude of Reduction of Intensity of Female Stress-Derived Odor (FSDO), Females (compound CC(C)=CCC(C)(C)C(=O)C(C)C ): good

Record CC(C)=CC1CC(C)CCO1 (centres unmarked) [Rose Oxide hc] . Reported Magnitude of Reduction of Intensity of Female Stress-Derived Odor (FSDO), Females: good
